IC50 values by entry
Target: PRMT5/MEP50 (Homo sapiens (Human))
Sequence (O14744 other isoform, or with tags, fused parts or gaps): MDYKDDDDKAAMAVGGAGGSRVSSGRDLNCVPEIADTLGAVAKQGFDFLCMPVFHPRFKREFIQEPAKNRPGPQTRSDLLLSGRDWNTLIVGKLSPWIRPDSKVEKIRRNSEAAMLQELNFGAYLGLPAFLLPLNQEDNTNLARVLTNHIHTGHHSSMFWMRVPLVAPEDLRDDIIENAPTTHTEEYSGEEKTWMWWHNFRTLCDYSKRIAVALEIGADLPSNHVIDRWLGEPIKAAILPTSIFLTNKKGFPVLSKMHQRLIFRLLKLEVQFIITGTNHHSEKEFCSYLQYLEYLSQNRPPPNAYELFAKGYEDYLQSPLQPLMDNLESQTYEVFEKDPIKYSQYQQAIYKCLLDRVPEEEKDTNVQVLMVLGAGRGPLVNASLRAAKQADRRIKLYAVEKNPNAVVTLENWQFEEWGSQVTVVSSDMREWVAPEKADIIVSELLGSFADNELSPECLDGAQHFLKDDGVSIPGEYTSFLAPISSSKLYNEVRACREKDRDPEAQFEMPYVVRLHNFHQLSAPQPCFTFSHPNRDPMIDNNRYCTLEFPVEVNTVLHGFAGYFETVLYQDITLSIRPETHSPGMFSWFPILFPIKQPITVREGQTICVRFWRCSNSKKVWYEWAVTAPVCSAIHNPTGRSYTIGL
Sequence (Q9BQA1 other isoform, or with tags, fused parts or gaps partner): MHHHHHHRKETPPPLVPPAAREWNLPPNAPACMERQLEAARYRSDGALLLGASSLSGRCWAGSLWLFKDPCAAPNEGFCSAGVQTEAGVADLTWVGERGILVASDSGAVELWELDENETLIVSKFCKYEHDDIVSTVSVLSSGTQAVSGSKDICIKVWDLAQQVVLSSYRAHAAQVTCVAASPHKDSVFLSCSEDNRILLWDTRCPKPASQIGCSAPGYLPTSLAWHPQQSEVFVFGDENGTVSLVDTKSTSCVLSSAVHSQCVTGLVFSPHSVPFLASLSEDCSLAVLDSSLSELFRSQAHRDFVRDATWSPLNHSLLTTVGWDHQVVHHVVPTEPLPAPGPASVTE
Assay: PRMT5 Biochemical Assay (PRMT5/MEP50 enzyme assay on peptide substrate, 3H-SAM Flashplate)
Details: PRMT5 biochemical assay; read-out: Biochemical IC50
Observation type: IC50

{"columns": ["Compound", "Observation type", "Observed"],
 "data": [
  ["O=C(COc1ccccc1-c1cc[nH]n1)NC[C@@H](O)CN1CCc2ccccc2C1 [Compound 67]", "IC50", "< 100 nM"],
  ["O=C(COc1ccccc1[C@@H]1CCCCN1)NC[C@@H](O)CN1CCc2ccccc2C1 [Compound 236]", "IC50", "101 to 1000 nM"],
  ["Cc1cn(C)c2cccc(OCC(=O)NC[C@@H](O)CN3CCc4ccccc4C3)c12 [Compound 164]", "IC50", "< 100 nM"],
  ["CC(=O)N1CCc2c(cccc2OCC(=O)NCC(O)CN2CCc3ccccc3C2)C1 (stereo not drawn) [Compound 101]", "IC50", "< 100 nM"],
  ["O=C(COc1ccccc1S(=O)(=O)N1CCOCC1)NCC(O)CN1CCc2ccccc2C1 (stereo not drawn) [Compound 149]", "IC50", "< 100 nM"],
  ["O=C(CCc1nc2cc(Cl)ccc2[nH]1)NC[C@@H](O)CN1CCc2ccccc2C1 [Compound 208]", "IC50", "101 to 1000 nM"],
  ["O=C(CCc1nc2c(Cl)cccc2[nH]1)NC[C@H](O)CN1CCc2ccccc2C1 [Compound 227]", "IC50", "< 100 nM"],
  ["O=C(COc1ccccc1C1CCCCN1)NC[C@H](O)CN1CCc2ccccc2C1 (stereo partly drawn) [Compound 253]", "IC50", "< 100 nM"],
  ["NC1CN(S(=O)(=O)c2ccccc2OCC(=O)NC[C@@H](O)CN2CCc3ccccc3C2)CC1O (stereo partly drawn) [Compound 215]", "IC50", "< 100 nM"],
  ["O=C(CC1Cc2ccccc2C1)NC[C@H](O)CN1CCc2ccccc2C1 [Compound 179]", "IC50", "101 to 1000 nM"],
  ["CN1CCC(CN(C)S(=O)(=O)c2ccccc2OCC(=O)NC[C@@H](O)CN2CCc3ccccc3C2)C1 (stereo partly drawn) [Compound 238]", "IC50", "< 100 nM"],
  ["Cn1cnc(-c2ccccc2OCC(=O)NCC(O)CN2CCc3ccccc3C2)c1 (stereo not drawn) [Compound 153]", "IC50", "< 100 nM"],
  ["Nc1ncnc2c(OCC(=O)NCC(O)CN3CCc4ccccc4C3)cccc12 (stereo not drawn) [Compound 168]", "IC50", "< 100 nM"],
  ["Cn1ccnc1CCNC(=O)c1cccc(OCC(=O)NC[C@@H](O)CN2CCc3ccccc3C2)c1 [Compound 245]", "IC50", "101 to 1000 nM"],
  ["CS(=O)(=O)Nc1ccccc1OCC(=O)NCC(O)CN1CCc2ccccc2C1 (stereo not drawn) [Compound 53]", "IC50", "< 100 nM"],
  ["[2H]C1([2H])Cc2ccccc2C([2H])([2H])N1C[C@@H](O)CNC(=O)CCc1nc2ccccc2[nH]1 [Compound 251]", "IC50", "101 to 1000 nM"],
  ["COc1cccc2[nH]c(CCC(=O)NC[C@H](O)CN3CCc4ccccc4C3)nc12 [Compound 242]", "IC50", "< 100 nM"],
  ["CS(=O)(=O)c1ccccc1OCC(=O)NCC(O)CN1CCc2ccccc2C1 (stereo not drawn) [Compound 37]", "IC50", "< 100 nM"],
  ["O=C(COCCN1CCOCC1)NCC(O)CN1CCc2ccccc2C1 (stereo not drawn) [Compound 167]", "IC50", "1000 to 10000 nM"],
  ["CS(=O)(=O)c1cccc(OCC(=O)NCC(O)CN2CCc3ccccc3C2)c1 (stereo not drawn) [Compound 47]", "IC50", "< 100 nM"],
  ["CN(CC1CCNC1)S(=O)(=O)c1ccccc1OCC(=O)NC[C@@H](O)CN1CCc2ccccc2C1 (stereo partly drawn) [Compound 219]", "IC50", "< 100 nM"],
  ["Cn1c(CCC(=O)NC[C@@H](O)CN2CCc3ccccc3C2)nc2ccccc21 [Compound 268]", "IC50", "1000 to 10000 nM"],
  ["CS(=O)(=O)Nc1cccc(OCC(=O)NC[C@@H](O)CN2CCc3ccccc3C2)c1C1CCCNC1 (stereo partly drawn) [Compound 265]", "IC50", "101 to 1000 nM"],
  ["O=C(NC[C@H](O)CN1CCc2ccccc2C1)C1CNc2ccccc21 (stereo partly drawn) [Compound 177]", "IC50", "101 to 1000 nM"],
  ["Cn1ncc2ccc(OCC(=O)NCC(O)CN3CCc4ccccc4C3)cc21 (stereo not drawn) [Compound 23]", "IC50", "< 100 nM"],
  ["CC(O)(C(=O)NCC(O)CN1CCc2ccccc2C1)c1ccccc1 (stereo not drawn) [Compound 173]", "IC50", "1000 to 10000 nM"],
  ["O=C(CCc1nc2c(F)cccc2[nH]1)NC[C@H](O)CN1CCc2ccccc2C1 [Compound 241]", "IC50", "< 100 nM"],
  ["Cn1cncc1-c1cccc(OCC(=O)NC[C@@H](O)CN2CCc3ccccc3C2)c1 [Compound 255]", "IC50", "101 to 1000 nM"],
  ["COCCNCCNC(=O)c1cccc(OCC(=O)NC[C@@H](O)CN2CCc3ccccc3C2)c1 [Compound 244]", "IC50", "< 100 nM"],
  ["CN1CCCC(c2c(CS(C)(=O)=O)cccc2OCC(=O)NC[C@@H](O)CN2CCc3ccccc3C2)C1 (stereo partly drawn) [Compound 247]", "IC50", "101 to 1000 nM"],
  ["CC(=O)Nc1ccncc1OCC(=O)NCC(O)CN1CCc2ccccc2C1 (stereo not drawn) [Compound 162]", "IC50", "1000 to 10000 nM"],
  ["O=C(CNc1nc2ccccc2[nH]1)NC[C@H](O)CN1CCc2ccccc2C1 [Compound 239]", "IC50", "< 100 nM"],
  ["Cn1cncc1-c1ccccc1OCC(=O)NCC(O)CN1CCc2ccccc2C1 (stereo not drawn) [Compound 156]", "IC50", "1000 to 10000 nM"]
]}

====

Target: PRMT5/MEP50 (Homo sapiens (Human))
Experiment: PRMT5 Biochemical Assay (PRMT5/MEP50 enzyme assay on peptide substrate, 3H-SAM Flashplate)
Settings: PRMT5 biochemical assay; read-out: Biochemical IC50
Source text: S-adenosylmethionine (SAM), S-adenosylhomocysteine (SAH), bicine, KCl, Tween20, dimethylsulfoxide (DMSO), bovine skin gelatin (BSG), and Tris(2-carboxyethyl)phosphine hydrochloride solution (TCEP) were purchased from Sigma-Aldrich at the highest level of purity possible. ^3H-SAM was purchase from American Radiolabeled Chemicals with a specific activity of 80 Ci/mmol. 384-well streptavidin Flashplates were purchased from PerkinElmer. […]
// IC50 lookup, one value per entry

{"columns": ["Compound", "IC50"],
 "data": [
  ["O=C(COc1cccc2ccccc12)NCC(O)CN1CCc2ccccc2C1 (centres unmarked)", "< 100 nM"],
  ["O=C(COc1ccccc1[C@@H]1CCCNC1)NC[C@H](O)CN1CCc2ccccc2C1", "< 100 nM"],
  ["O=C(CCn1cnc2ccccc21)NC[C@H](O)CN1CCc2ccccc2C1", "1000 to 10000 nM"],
  ["O=C(COc1cccc(C(=O)NCCN2CCOCC2)c1)NC[C@@H](O)CN1CCc2ccccc2C1", "1000 to 10000 nM"],
  ["O=C(COc1c(CN2CCOCC2)ccc2cccnc12)NC[C@H](O)CN1CCc2ccccc2C1", "< 100 nM"],
  ["CN1CCN(c2cccc(OCC(=O)NC[C@@H](O)CN3CCc4ccccc4C3)c2S(=O)(=O)N(C)C)CC1", "< 100 nM"],
  ["CN1CCN(c2ccccc2OCC(=O)NC[C@H](O)CN2CCc3ccccc3C2)CC1", "< 100 nM"],
  ["O=C(COc1nc2ccccc2[nH]1)NC[C@H](O)CN1CCc2ccccc2C1", "101 to 1000 nM"],
  ["O=C(COc1cccc2cnncc12)NCC(O)CN1CCc2ccccc2C1 (centres unmarked)", "1000 to 10000 nM"],
  ["O=C(CCc1nc2cc(F)ccc2[nH]1)NC[C@@H](O)CN1CCc2ccccc2C1", "101 to 1000 nM"],
  ["O=C(COc1cccc(C(=O)NCCc2ncc[nH]2)c1)NC[C@@H](O)CN1CCc2ccccc2C1", "101 to 1000 nM"],
  ["O=C(COc1cccc2nccnc12)NCC(O)CN1CCc2ccccc2C1 (centres unmarked)", "< 100 nM"],
  ["CC(C)N(C)CCN(C)S(=O)(=O)c1ccccc1OCC(=O)NC[C@@H](O)CN1CCc2ccccc2C1", "< 100 nM"],
  ["Cn1cc(-c2ccccc2)nc1CCC(=O)NC[C@H](O)CN1CCc2ccccc2C1", "101 to 1000 nM"],
  ["O=C(COc1ccc2c(cnn2C2CCNC2)c1)NCC(O)CN1CCc2ccccc2C1 (centres unmarked)", "< 100 nM"],
  ["Cn1cnc(CCNC(=O)c2cccc(OCC(=O)NC[C@@H](O)CN3CCc4ccccc4C3)c2)c1", "101 to 1000 nM"],
  ["O=C(COc1cccc2c1CCNC2)NCC(O)CN1CCc2ccccc2C1 (centres unmarked)", "< 100 nM"]
]}
